Hello, the source for this data is paper PMC12814168, in case you need it.

- Study system: cpRho-tag
- Assay text: Fluorescence polarization with 0.5-20 nM dye (0.5 nM TMR in Figure S6 titrations) and serial protein dilutions in 50 mM HEPES, 50 mM NaCl, pH 7.3 with BSA, 25 °C, N at least 3.
- Applied conditions: SD, n = 3; read-out: K D, other Rho-tag forms and JF549
- Experimental: electroporation buffer, aliquoted (12 x 50 µL) on ice, and used immediately for electroporation with 1–5 µg DNA precipitated DNA. […] SGCAA medium was used for induction and cells were grown at 30 °C, 250 rpm for 20 h. […] Samples were filtered through 5 mL round-bottom tubes with cell strainer caps (Falcon) and analyzed directly by FACS. […] Stopped-flow kinetic fluorescence anisotropy […] rapidly mixed (singlemix sequence). Fluorescence anisotropy changes were monitored over […] calculated using Equation 4. […]
Reported metric: pKd
pKd field: float, defined as -log10 of concentration (mol/L).

Challenge: Give the measured pKd of CN(C)c1ccc2c(-c3ccccc3C(=O)[O-])c3ccc(N(C)C)cc3[o+]c2c1 [TMR, tetramethylrhodamine] .
Response given: 8.17

---

- Study system: SAV2435 (Staphylococcus aureus, UniProt A0A0H3K0Y5)
- Construct: recombinant from E. coli, N-terminal His10-TEV (pET51b), 20 kDa
- Sequence (A0A0H3K0Y5 entry or part of it): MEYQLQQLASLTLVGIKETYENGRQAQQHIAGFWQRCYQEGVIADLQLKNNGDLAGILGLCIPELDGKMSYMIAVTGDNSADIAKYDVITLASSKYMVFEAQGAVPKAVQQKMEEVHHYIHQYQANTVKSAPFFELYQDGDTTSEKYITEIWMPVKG
- Assay text: Fluorescence polarization at constant 20 nM TMR with serial protein dilutions (0-200 uM) in 50 mM HEPES, 50 mM NaCl, pH 7.3 with BSA, 25 °C, N at least 3.
- Format: binding
- Applied conditions: SD, n = 3
- Description: 1 Dye and candidate selection for the development of Rho-tags. A) Chemical structure of TMR and SiR and their corresponding HaloTag Ligand (HTL) derivatives. […] B) BOILED-Egg representation generated with SwissADME for molecules shown in (A). […] SGCAA medium was used for induction and cells were grown at 30 °C, 250 rpm for 20 h. […] Samples were filtered through 5 mL round-bottom tubes with cell strainer caps (Falcon) and analyzed directly by FACS. […]
Reported metric: Kd (µM)
Express your answer in µM, writing the number without its unit.

Challenge: Give the measured Kd of "CN(C)c1ccc2c(-c3ccccc3C(=O)[O-])c3ccc(N(C)C)cc3[o+]c2c1" .
Response given: 17

---

- Assay text: Spectral properties: absolute quantum yield, extinction coefficient, brightness
- Assay type: physicochemical
- Applied conditions: with 20 µM Rho-tag (TMR, JF549) or SiR-tag (SiR, JF646)
Reported metric: Extinction coefficient ε

Reference set, count: 2
- CN(C)c1ccc2c(c1)[Si](C)(C)c1cc(N(C)C)ccc1C21OC(=O)c2ccccc21 [SiR, silicon rhodamine]: 162 ± 30 M-1cm-1 × 103
- O=C1OC2(c3ccc(N4CCC4)cc3Oc3cc(N4CCC4)ccc32)c2ccccc21 [JF549]: 121 ± 22 M-1cm-1 × 103

Challenge: Give the measured Extinction coefficient ε of C[Si]1(C)c2cc(N3CCC3)ccc2C2(OC(=O)c3ccccc32)c2ccc(N3CCC3)cc21 [JF646] .
Response given: 152 ± 17 M-1cm-1 × 103

Challenge: Next up: CN(C)c1ccc2c(-c3ccccc3C(=O)[O-])c3ccc(N(C)C)cc3[o+]c2c1 [TMR, tetramethylrhodamine]
Response given: 103 ± 21 M-1cm-1 × 103

---

- Study system: Rho-tag (Chlorobaculum tepidum, UniProt Q8KFZ1, V17Q/Q25R/S33N/E36V/H40T/K51V/F62Y/M64F/S65D/A66M/G67E/E70D/V87I/G107D/D121K/F125Y/D126E/N138A/S152V)
- Construct: gene CT0179; His10-TEV, recombinant from E. coli
- Sequence (Q8KFZ1 entry or part of it with the stated changes): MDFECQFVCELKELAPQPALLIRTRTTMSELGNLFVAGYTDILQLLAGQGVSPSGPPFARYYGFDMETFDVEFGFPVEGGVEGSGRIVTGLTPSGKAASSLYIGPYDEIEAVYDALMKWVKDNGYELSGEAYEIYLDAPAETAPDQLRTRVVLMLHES
- Assay text: Fluorescence polarization at constant 20 nM TMR-linked ligand with serial Rho-tag dilutions (0-200 uM), pH 7.3, 25 °C, three independent measurements.
- Assay type: binding
- Applied conditions: SD, n = 3; read-out: KD [µM] (Supplementary Table 4)
Reported metric: Kd (µM)
Express your answer in µM, writing the number without its unit.

Challenge: Give the measured Kd of "CN(C)c1ccc2c(-c3cc(C(=O)NCCOCCOCCCCCNS(C)(=O)=O)ccc3C(=O)[O-])c3ccc(=[N+](C)C)cc-3oc2c1" .
Response given: 18.8
